Origin of measurements: patent US20240317840A1

target: T1, HBsAg of HBV genotype A (AY934772) (Hepatitis B virus); assay: sandwich ELISA, captured HBsAg from culture supernatant
T1 construct: captured from supernatant by horse polyclonal anti-HBsAg
observed.property: IC50 (nM)
Record the value in nM, omitting the unit from your answer.

Problem: Returns the measured IC50 for the input binder. Input: NOV3841 (antibody, human IgG1, lambda, V domains shown, Full human IgG1 (lambda) expressed in CHO cells) VH: EVQLLESGGGLVQPGGSRRLSCAASGFTFSYYGMNWVRQAPGKGLEWVSGITQSGSITYYADTVKGRFSISRDNSKNTLFLQMNSLRAEDTAVYYCAKVGVRSSSGMWDLDYWGQGTLVTVSS VL: SYVLTQPPSVSVAPGQTARLSCGGNNIGSKSLQWYQQKPGQAPVLVVNDESDRPSGIPERFSGSNSGNTATLTISRVEAGDEADYYCQVWDTSSDHVVFGGGTKLTVLG
Solution: 1.1
